system: ABCA1 mRNA; experiment: ABCA1 mRNA induction in THP-1 cells, QuantiGene branched DNA assay; type: cell-based; conditions: Homo sapiens, 10 μM test compound, 18-20 hours, read-out: ABCA1 Induction Fold Increase over DMSO Vehicle
The entries below are paired with their reported fold induction at 10 µM.
Reply briefly: the number, and no unit.

These recorded examples may help you get a feel for the data.
>  <Compound>
COc1ccc2c(c1)C1Nc3ccc(C(O)(C(F)(F)F)C(F)(F)F)cc3C(C)(C)C1CO2 (stereo not shown)

>  <fold induction at 10 µM>
3.1

$$$$
>  <Compound>
COc1cccc2c1OC[C@H]1[C@@H]2Nc2ccc(-c3ccc(F)cc3)cc2C1(C)C

>  <fold induction at 10 µM>
1.7

$$$$

Reported fold induction at 10 µM of COc1cccc2c1[C@H]1Nc3ccc(-n4cc(C(=O)O)cn4)cc3C(C)(C)[C@H]1CO2 : 4.1

Reported fold induction at 10 µM of COC(=O)c1ccc2c(c1)C(C)(C)[C@H]1COc3c(OC)cc(-c4cn[nH]c4)cc3[C@H]1N2 : 8.1

* * *

The entries below are paired with their reported fold induction at 10 µM.
Test system: ABCA1 mRNA
Experiment: ABCA1 mRNA induction in THP-1 cells, QuantiGene branched DNA assay
Type: cell-based
Conditions: Homo sapiens, 10 μM test compound, 18-20 hours, read-out: ABCA1 Induction Fold Increase over DMSO Vehicle
Method: Modulation of expression of ABCA1 mRNA levels by the compounds of the invention was determined in the following assays. Induction of ABC1 in THP-1 cells, was measured using QuantiGene® branched DNA assay as per manufacturer's instructions. Cultures of THP-1 were grown to subconfluence in DMEM/10% FBS before replacement with DMEM/BSA and 10 and 3 μM concentrations of the test compounds in DMSO for 18-20 hours. […] Luminescence was quantified in Victor V plate reader. […]

These recorded examples may help you get a feel for the data.
>  <Compound>
CCS(=O)(=O)N1CCN(C(=O)c2ccc3c(c2)C(C)(C)[C@H]2COc4cccc(OC)c4[C@H]2N3)CC1

>  <fold induction at 10 µM>
4.3

$$$$
>  <Compound>
COc1cccc2c1[C@@H]1[C@H](CO2)C(C)(C)c2ccccc2N1C1CCCCC1

>  <fold induction at 10 µM>
12.5

$$$$
>  <Compound>
CC1(C)c2cc(C(=O)N3CCNCC3)ccc2N[C@@H]2c3c(F)cccc3OC[C@@H]21

>  <fold induction at 10 µM>
4.2

$$$$
>  <Compound>
CCOC(=O)c1cnn(-c2ccc3c(c2)C(C)(C)[C@H]2COc4cccc(OC)c4[C@H]2N3)c1C

>  <fold induction at 10 µM>
2.7

$$$$
>  <Compound>
CCOP(=O)(Cc1ccc2c(c1)C(C)(C)[C@H]1COc3c(OC)cc(-c4cn[nH]c4)cc3[C@H]1N2)OCC

>  <fold induction at 10 µM>
4.9

$$$$
>  <Compound>
CCS(=O)(=O)N1CCN(C(=O)c2ccc3c(c2)C(C)(C)[C@@H]2COc4c(OC)cccc4[C@H]2N3)CC1

>  <fold induction at 10 µM>
3.8

$$$$

Summary: CCOP(=O)(Cc1ccc2c(c1)C(C)(C)C1COc3cccc(OC)c3C1N2)OCC (stereo not shown) , ABCA1 mRNA, fold induction at 10 µM = 2.2

Summary: COc1cccc2c1[C@@H]1[C@H](CO2)C(C)(C)c2ccccc2N1C(C)C , ABCA1 mRNA, fold induction at 10 µM = 2.7

Summary: CCOC(=O)c1cnn(-c2ccc3c(c2)C(C)(C)[C@H]2COc4cccc(OC)c4[C@H]2N3)c1 , ABCA1 mRNA, fold induction at 10 µM = 6.4

Summary: COc1cccc2c1[C@@H]1[C@H](CO2)C(C)(C)c2ccccc2N1CC(=O)O , ABCA1 mRNA, fold induction at 10 µM = 9.4

Summary: COC(=O)CCN1c2ccccc2C(C)(C)[C@H]2COc3cccc(OC)c3[C@@H]21 , ABCA1 mRNA, fold induction at 10 µM = 2.2

Summary: COc1cc(-c2cn[nH]c2)cc2c1OC[C@@H]1[C@@H]2Nc2ccc(-c3cnco3)cc2C1(C)C , ABCA1 mRNA, fold induction at 10 µM = 4.7

Summary: CCCN1c2ccccc2C(C)(C)[C@@H]2COc3cccc(OC)c3[C@H]21 , ABCA1 mRNA, fold induction at 10 µM = 1.8

Summary: CN(C)C(=O)CCc1ccc2c(c1)C1Nc3ccc(C(O)(C(F)(F)F)C(F)(F)F)cc3C(C)(C)C1CO2 (stereo not shown) , ABCA1 mRNA, fold induction at 10 µM = 3.4
